Molecular target: PI 3-kinase gamma (Homo sapiens, UniProt P48736)
Sequence (P48736 whole entry): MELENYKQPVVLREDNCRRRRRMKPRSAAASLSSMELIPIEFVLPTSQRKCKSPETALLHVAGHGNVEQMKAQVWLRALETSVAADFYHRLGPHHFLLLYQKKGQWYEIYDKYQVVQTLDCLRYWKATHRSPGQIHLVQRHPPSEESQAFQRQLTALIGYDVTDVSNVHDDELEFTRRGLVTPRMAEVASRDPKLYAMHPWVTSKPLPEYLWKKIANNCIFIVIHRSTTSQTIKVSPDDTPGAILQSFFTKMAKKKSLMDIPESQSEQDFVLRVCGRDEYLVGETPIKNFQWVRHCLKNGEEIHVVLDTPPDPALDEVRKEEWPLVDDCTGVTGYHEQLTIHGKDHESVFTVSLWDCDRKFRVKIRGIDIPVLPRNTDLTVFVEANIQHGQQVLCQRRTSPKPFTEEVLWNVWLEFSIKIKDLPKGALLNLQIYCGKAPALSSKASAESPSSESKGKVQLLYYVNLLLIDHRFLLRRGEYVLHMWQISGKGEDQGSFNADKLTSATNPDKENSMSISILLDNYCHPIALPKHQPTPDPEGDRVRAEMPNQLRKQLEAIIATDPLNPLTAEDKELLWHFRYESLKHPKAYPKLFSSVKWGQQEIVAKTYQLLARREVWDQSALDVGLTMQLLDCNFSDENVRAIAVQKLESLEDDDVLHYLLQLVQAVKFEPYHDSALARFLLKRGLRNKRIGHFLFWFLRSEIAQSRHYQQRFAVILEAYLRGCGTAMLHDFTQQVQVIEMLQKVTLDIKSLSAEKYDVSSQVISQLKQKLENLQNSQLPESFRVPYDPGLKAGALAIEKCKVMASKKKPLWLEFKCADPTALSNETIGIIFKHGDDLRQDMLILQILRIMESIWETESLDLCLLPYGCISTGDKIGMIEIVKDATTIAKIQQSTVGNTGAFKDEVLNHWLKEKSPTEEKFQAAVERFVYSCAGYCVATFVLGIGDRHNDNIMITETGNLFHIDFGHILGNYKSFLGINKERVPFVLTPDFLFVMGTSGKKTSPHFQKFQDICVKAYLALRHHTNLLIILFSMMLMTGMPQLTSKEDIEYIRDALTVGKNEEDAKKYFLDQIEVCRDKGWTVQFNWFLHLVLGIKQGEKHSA
Assay: Cellular U937 AKT assay K1 (MSD)
Assay type: cell-based
Settings: U937 cells, K1 format; read-out: Assay K1 PI3Kγ IC50
Metric: IC50 (nM)

Here are 6 compounds together with their reported answers.
Cc1ccc(S(=O)(=O)NCC2(C)COC2)cc1-c1cnc(N)c(-c2cn(C)nc2C)n1 = 51
Cc1ccc(S(=O)(=O)NC[C@@](C)(O)C(F)(F)F)cc1-c1cnc(N)c(-n2cncn2)n1 = 156
Cc1cc(-c2nc(-c3cc(S(=O)(=O)N[C@H]4CC[C@H](O)CC4)ccc3C)cnc2N)on1 = 38
Cc1cc(Cl)c(S(=O)(=O)NCC(C)(C)O)cc1-c1cnc(N)c(-n2cncn2)n1 = 38
Cc1ccc(S(=O)(=O)NCCC(C)(C)O)cc1-c1cnc(N)c(-c2cscn2)n1 = 58
Cc1ccc(S(=O)(=O)NCC2(CO)CCCC2)cc1-c1cnc(N)c(-n2cncn2)n1 = 66

[I] Cc1ccc(S(=O)(=O)NCCC(C)(C)O)cc1-c1cnc(N)c(-c2cnn(CC(F)(F)F)c2)n1
[II] Cc1ccc(S(=O)(=O)NCC2(CO)COC2)cc1-c1cnc(N)c(-c2cn(C)nc2C)n1
Please tell me which of the two, I or II , has the higher reported IC50 value. Bench note: the answer is the label of the chosen record.
II
(II: 209 nM, I: 65 nM)

[a] Cc1ccc(S(=O)(=O)NCC2CCCOC2)cc1-c1cnc(N)c(-n2cncn2)n1 (stereo not shown)
[b] Cc1cc(-c2nc(-c3cc(S(=O)(=O)NCC4(O)COC4)ccc3C)cnc2N)ccn1
Returns: the label, a or b , whose recorded IC50 is the lower number. Bench note: the answer is the label of the chosen record.
a
(a: 153 nM, b: 800 nM)

###

Molecular target: mTOR (Homo sapiens, UniProt P42345)
Assay: Lanthascreen kinase binding assay, assay G
Conditions: read-out: Assay G mTOR IC50
Metric: IC50 (µM)

Here are 5 compounds together with their reported answers.
Cc1nc(-c2nc(-c3cc(S(=O)(=O)NCCC(C)(C)O)ccc3C)cnc2N)cs1 = 2.88
Cc1ccc(S(=O)(=O)N[C@H]2CC[C@@](C)(O)CC2)cc1-c1cnc(N)c(-n2cncn2)n1 [Example 69b] = 9.6
Cc1ccc(S(=O)(=O)NCC2(CO)CCCC2)cc1-c1cnc(N)c(-n2cncn2)n1 = 3.3
Cc1cc(-c2nc(-c3cc(S(=O)(=O)NCC(C)(C)N4CCOCC4)ccc3C)cnc2N)ccn1 = 6
Cc1ccc(S(=O)(=O)NC2CC3(CC(O)C3)C2)cc1-c1cnc(N)c(-c2cn(C)nc2C)n1 (single isomer, unassigned) [Example 9a] = 8.1

[1] Cc1ccc(S(=O)(=O)NCC(C)(C)O)cc1-c1cnc(N)c(-c2cc(C3CC3)no2)n1
[2] Cc1ccc(S(=O)(=O)N2CC(F)C2)cc1-c1cnc(N)c(-n2cncn2)n1
Please tell me which of the two, 1 or 2 , has the higher reported IC50 value. Bench note: the answer is the label of the chosen record.
1

###

Target: Vps34 (Homo sapiens)
Assay: Kinase Glo Luminescent Kinase Assay (Kglo), assay C
Assay type: biochemical
Settings: read-out: Assay C VPS34 IC50
pIC50: −log10 of the molar value.
Metric: pIC50

[P] Cc1ncc(-c2nc(-c3cc(S(=O)(=O)NCC4CCCCO4)ccc3C)cnc2N)s1 (stereo not shown)
[Q] Cc1ncc(-c2nc(-c3cc(S(=O)(=O)N[C@H]4C[C@H](O)C4)ccc3C)cnc2N)s1 [Example 43b]
Returns: the label, P or Q , whose recorded pIC50 is the lower number. Bench note: the answer is the label of the chosen record.
Q
(Q: 5.26, P: 5.52)

###

Target: PI 3-kinase beta (Homo sapiens, UniProt P42338)
Sequence (P42338 whole entry): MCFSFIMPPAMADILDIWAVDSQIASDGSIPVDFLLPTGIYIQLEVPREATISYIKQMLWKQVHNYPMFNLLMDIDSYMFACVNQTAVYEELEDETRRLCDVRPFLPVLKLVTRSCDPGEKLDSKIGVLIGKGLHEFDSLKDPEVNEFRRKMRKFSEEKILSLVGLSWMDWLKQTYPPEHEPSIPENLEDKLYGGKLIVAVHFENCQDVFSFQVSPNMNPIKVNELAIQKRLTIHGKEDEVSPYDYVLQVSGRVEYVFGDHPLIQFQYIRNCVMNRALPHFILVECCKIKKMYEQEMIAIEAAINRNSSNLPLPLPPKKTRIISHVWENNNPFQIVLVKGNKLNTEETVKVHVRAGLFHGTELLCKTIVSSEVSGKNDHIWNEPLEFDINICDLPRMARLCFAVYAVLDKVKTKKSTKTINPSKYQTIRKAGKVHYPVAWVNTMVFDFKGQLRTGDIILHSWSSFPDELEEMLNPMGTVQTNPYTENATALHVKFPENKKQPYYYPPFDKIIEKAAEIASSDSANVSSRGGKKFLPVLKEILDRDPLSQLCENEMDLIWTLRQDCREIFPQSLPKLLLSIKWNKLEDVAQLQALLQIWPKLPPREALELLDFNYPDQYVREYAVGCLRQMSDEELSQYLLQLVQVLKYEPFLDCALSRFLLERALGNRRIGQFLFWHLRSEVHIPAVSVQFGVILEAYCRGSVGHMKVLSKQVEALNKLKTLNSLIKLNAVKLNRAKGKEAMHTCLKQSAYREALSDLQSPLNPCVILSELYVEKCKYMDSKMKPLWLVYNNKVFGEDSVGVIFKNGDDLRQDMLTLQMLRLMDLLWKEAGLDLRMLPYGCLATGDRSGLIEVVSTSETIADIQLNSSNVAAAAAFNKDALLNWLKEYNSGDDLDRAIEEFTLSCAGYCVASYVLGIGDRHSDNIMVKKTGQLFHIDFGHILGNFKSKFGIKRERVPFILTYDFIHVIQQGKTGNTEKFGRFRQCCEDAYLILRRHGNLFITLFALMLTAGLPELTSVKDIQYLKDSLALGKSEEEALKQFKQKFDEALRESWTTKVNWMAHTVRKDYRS
Sequence (Q63787 whole entry partner): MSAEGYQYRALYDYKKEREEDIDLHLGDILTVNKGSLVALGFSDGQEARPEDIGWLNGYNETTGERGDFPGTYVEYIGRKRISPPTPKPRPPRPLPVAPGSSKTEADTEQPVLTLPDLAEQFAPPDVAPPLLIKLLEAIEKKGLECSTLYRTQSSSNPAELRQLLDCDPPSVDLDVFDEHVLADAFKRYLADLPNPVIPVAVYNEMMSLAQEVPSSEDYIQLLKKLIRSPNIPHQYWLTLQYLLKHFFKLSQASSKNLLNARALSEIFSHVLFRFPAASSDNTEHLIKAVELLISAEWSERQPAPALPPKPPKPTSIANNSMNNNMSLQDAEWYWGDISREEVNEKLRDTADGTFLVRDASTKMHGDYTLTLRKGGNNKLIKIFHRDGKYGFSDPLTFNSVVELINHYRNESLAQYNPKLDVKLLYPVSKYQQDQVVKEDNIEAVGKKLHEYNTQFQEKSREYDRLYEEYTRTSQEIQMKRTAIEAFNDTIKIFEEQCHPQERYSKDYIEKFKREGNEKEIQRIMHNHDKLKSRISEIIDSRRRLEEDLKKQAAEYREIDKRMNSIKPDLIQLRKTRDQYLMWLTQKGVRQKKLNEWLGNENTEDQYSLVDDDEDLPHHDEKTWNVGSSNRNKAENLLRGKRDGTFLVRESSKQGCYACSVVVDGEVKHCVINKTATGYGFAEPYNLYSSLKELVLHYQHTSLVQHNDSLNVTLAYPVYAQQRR
Assay: Cellular assay I1, p-Akt (S473) in Rat-1 cells, Surefire format
Type: cell-based
Conditions: non-asterisked data: version I1 (Surefire format), Rat-1 cells; read-out: Assay I PI3Kβ IC50
pIC50: −log10 of the molar value.
Metric: pIC50

Cc1ccc(S(=O)(=O)NCCC(C)(C)O)cc1-c1cnc(N)c(-c2cnn(C(C)C)c2)n1 = 5.16
Cc1ccc(S(=O)(=O)NCCC(C)(C)O)cc1-c1cnc(N)c(-c2cc(Cl)cnc2F)n1 = 5.33

[1] CC(C)(O)CCNS(=O)(=O)c1ccc(Cl)c(-c2cnc(N)c(-n3cncn3)n2)c1
[2] Cc1ccc(S(=O)(=O)NCC(C)(C)O)cc1-c1cnc(N)c(-c2nn(C)nc2C)n1
[3] Cc1cc(-c2nc(-c3cc(S(=O)(=O)NCC4CCCOC4)ccc3C)cnc2N)ccn1 (stereo not shown)
Place the items in sequence of falling pIC50. Give your ranking as a list of the labels in the requested order.
2, 1, 3

[A] Cc1ccc(S(=O)(=O)NOCC(C)(C)O)cc1-c1cnc(N)c(-n2cncn2)n1
[B] Cc1ncc(-c2nc(-c3cc(S(=O)(=O)N4CCNC(C(F)(F)F)C4)ccc3C)cnc2N)s1 (stereo not shown)
[C] Cc1ccc(S(=O)(=O)NCCC(C)(C)O)cc1-c1cnc(N)c(-n2cnc(C(C)C)n2)n1
Arrange the 3 entries by pIC50 so the values rise. Give your ranking as a list of the labels in the requested order.
C, A, B
(C: 5.23, A: 5.60, B: 5.80)

[a] Cc1ccc(S(=O)(=O)NCCC(C)(C)O)cc1-c1cnc(N)c(-c2cnc(C3CC3)s2)n1
[b] Cc1ccc(S(=O)(=O)NCC(C)(C)O)cc1-c1cnc(N)c(-c2cnn(C)n2)n1
[c] COC1(C)CN(S(=O)(=O)c2ccc(C)c(-c3cnc(N)c(-c4cn(C)nc4C)n3)c2)C1
[d] Cc1ncc(-c2nc(-c3cc(S(=O)(=O)NCCC(C)(C)O)ccc3C)cnc2N)s1
Arrange the 4 entries by pIC50 so the values rise. Give your ranking as a list of the labels in the requested order.
d, c, b, a

[P] Cc1ncc(-c2nc(-c3cc(S(=O)(=O)NC[C@H]4C[C@H](O)C4)ccc3C)cnc2N)s1 [Example 20b]
[Q] CCn1ncc(-c2nc(-c3cc(S(=O)(=O)NCC(C)(C)O)ccc3C)cnc2N)n1
[R] Cc1cn(-c2nc(-c3cc(S(=O)(=O)N[C@H]4CC[C@H](O)CC4)ccc3C)cnc2N)cn1
Place the items in sequence of falling pIC50. Give your ranking as a list of the labels in the requested order.
P, Q, R

[1] Cc1ccc(S(=O)(=O)NCCC(C)(C)O)cc1-c1cnc(N)c(-c2cnn(C)c2)n1
[2] Cc1ccc(S(=O)(=O)NCCC(F)(F)F)cc1-c1cnc(N)c(-n2cncn2)n1
Please tell me which of the two, 1 or 2 , has the higher reported pIC50 value. Bench note: the answer is the label of the chosen record.
2

###

Biological target: PI 3-kinase alpha (Homo sapiens)
Sequence (P42336 whole entry): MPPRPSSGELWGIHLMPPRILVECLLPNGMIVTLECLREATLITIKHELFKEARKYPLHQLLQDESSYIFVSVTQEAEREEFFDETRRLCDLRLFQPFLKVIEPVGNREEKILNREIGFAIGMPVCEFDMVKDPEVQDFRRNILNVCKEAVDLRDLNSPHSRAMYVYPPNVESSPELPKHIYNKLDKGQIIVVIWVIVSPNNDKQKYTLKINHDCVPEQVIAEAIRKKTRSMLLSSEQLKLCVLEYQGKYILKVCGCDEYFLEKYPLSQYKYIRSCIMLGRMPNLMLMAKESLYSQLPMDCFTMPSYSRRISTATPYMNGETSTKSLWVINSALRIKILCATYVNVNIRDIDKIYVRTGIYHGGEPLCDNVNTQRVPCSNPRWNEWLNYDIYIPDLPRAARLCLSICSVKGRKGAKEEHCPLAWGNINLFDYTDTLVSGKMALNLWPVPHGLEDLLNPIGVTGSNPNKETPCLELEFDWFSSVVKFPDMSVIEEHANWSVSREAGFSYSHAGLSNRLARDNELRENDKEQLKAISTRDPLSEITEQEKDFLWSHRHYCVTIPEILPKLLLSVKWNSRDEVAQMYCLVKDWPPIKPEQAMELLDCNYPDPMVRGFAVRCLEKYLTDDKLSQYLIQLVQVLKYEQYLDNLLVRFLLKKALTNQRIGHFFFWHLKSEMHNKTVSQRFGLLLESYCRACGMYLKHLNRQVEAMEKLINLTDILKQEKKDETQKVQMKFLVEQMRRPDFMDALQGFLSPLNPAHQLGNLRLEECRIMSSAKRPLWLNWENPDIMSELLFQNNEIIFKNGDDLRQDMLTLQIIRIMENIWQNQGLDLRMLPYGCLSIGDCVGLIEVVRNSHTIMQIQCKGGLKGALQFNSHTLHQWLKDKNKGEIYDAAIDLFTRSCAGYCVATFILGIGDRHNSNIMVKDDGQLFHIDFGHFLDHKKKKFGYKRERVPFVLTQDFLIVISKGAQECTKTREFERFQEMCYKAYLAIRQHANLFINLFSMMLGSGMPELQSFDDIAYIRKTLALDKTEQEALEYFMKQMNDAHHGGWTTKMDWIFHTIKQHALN
Assay: Kinase Glo Luminescent Kinase Assay (Kglo), assay A
Format: biochemical
Conditions: read-out: Assay A PI3Kα IC50
Metric: IC50 (nM)

Here are 6 compounds together with their reported answers.
COC1(C)CN(S(=O)(=O)c2ccc(C)c(-c3cnc(N)c(-c4cn(C)nc4C)n3)c2)C1 = 550
Cc1ccc(S(=O)(=O)NCCC(C)(C)O)cc1-c1cnc(N)c(-c2cc(Cl)cnc2F)n1 = 1050
Cc1ccc(S(=O)(=O)NCCC(C)(C)O)cc1-c1cnc(N)c(-c2cc[nH]n2)n1 = 710
Cc1nc(C)c(-c2nc(-c3cc(S(=O)(=O)NCC(C)(C)O)ccc3C)cnc2N)s1 = 1400
Cc1ncc(-c2nc(-c3cc(S(=O)(=O)NCC4(CO)CCOCC4)ccc3C)cnc2N)s1 = 30
Cc1ccc(S(=O)(=O)NCCC(C)(C)O)cc1-c1cnc(N)c(-c2cscn2)n1 = 310

[A] CCc1nnc(-c2nc(-c3cc(S(=O)(=O)N[C@H]4CC[C@H](O)CC4)ccc3C)cnc2N)o1
[B] Cc1cc(C)c(S(=O)(=O)NCC(C)(C)O)cc1-c1cnc(N)c(-n2cncn2)n1
Returns: the label, A or B , whose recorded IC50 is the lower number. Bench note: the answer is the label of the chosen record.
B
(B: 120 nM, A: 2700 nM)

###

Biological target: PI 4-kinase beta (Homo sapiens)
Sequence (Q9UBF8 whole entry): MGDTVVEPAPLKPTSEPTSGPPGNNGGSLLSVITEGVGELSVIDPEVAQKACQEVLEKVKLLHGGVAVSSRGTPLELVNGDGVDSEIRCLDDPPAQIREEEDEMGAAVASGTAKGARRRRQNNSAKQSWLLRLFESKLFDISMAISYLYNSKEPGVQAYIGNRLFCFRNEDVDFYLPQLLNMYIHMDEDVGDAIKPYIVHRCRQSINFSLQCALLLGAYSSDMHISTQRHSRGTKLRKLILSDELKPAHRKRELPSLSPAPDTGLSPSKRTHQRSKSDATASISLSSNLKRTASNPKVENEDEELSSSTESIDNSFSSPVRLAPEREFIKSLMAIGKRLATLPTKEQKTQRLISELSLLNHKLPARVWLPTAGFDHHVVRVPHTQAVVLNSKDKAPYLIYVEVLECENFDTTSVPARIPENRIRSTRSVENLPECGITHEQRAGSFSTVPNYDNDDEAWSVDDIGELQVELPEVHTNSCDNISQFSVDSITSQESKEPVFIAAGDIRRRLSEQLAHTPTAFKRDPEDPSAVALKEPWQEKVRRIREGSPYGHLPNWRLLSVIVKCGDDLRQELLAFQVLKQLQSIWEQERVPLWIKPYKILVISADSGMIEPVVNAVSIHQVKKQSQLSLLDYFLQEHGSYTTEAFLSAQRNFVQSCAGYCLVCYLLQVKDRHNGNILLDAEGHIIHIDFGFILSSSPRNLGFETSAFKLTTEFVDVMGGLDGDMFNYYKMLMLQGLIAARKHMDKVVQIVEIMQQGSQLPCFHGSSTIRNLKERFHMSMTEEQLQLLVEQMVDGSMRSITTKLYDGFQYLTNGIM
Assay: Kinase Glo Luminescent Kinase Assay (Kglo), assay D
Type: biochemical
Conditions: read-out: Assay D PI4Kβ IC50
Metric: IC50 (µM)

Here are 4 compounds together with their reported answers.
Cc1ccc(S(=O)(=O)NCC2(O)CC2)cc1-c1cnc(N)c(-n2cncn2)n1 = 8.9
Cc1ccc(S(=O)(=O)NCC(=O)C(C)(C)C)cc1-c1cnc(N)c(-n2cncn2)n1 = 8
Cc1ccc(S(=O)(=O)NCCC(C)(C)O)cc1-c1cnc(N)c(-c2cnn(Cc3ccccn3)c2)n1 = 5.3
Cc1ccc(S(=O)(=O)NC[C@H]2CCCO2)cc1-c1cnc(N)c(-n2cncn2)n1 = 8.45

[a] Cc1ccc(S(=O)(=O)NCC(C)(C)O)cc1-c1cnc(N)c(-c2cnn(CC(F)(F)F)n2)n1
[b] Cc1ccc(S(=O)(=O)N[C@H]2CC[C@H](O)CC2)cc1-c1cnc(N)c(-n2cccn2)n1
Please tell me which of the two, a or b , has the higher reported IC50 value. Bench note: the answer is the label of the chosen record.
a
(a: 7.05 µM, b: 2.74 µM)
